- ASSAY_INFO: qHTS assay for measurement of the activity of small molecule inhibitors on Zika virus induced Caspase-3 activity in human iPSC derived neural progenitor cells (hNPCs) (AID 1224857); also: nearly all actives have a fitted effect of over 65% in size
- RUN_CONDITIONS: hNPCs ZIKV-induced caspase-3/7, Caspase-Glo luminescence, 6 h; series mostly up to 45.7 µM
Records with an inconclusive call do not appear. The source made the active and inactive calls. Calls follow the shape of the dose curve; as a rule, active = well fitted inhibition curve with a large enough effect; inconclusive = small, poorly fitted or top-dose-only effect; inactive = no such curve, though single readings can be large or run the other way.
MEASUREMENT_LABEL: outcome

- COMPOUND: "CCCCOc1ccc(C(=O)Nc2ccc(F)cc2F)cc1"
  REPORTED_RESULT: "inactive"
- COMPOUND: "Oc1cc2c(cc1O)C1c3ccc(O)c(O)c3OCC1(O)C2 (centres undefined)"
  REPORTED_RESULT: "inactive"
- COMPOUND: "C[C@@H]1[C@H](C)CC[C@]2(C(=O)O)CC[C@]3(C)C(=CC[C@@H]4[C@@]5(C)C[C@@H](O)[C@H](O)[C@@](C)(CO)[C@H]5CC[C@]43C)[C@@H]12"
  REPORTED_RESULT: "inactive"
- COMPOUND: "C=C(C)[C@@H]1CC[C@]2(C)CC[C@]3(C)[C@H](CC[C@@H]4[C@@]5(C)CC[C@H](O)C(C)(C)[C@H]5CC[C@]43C)[C@@H]12"
  REPORTED_RESULT: "inactive"
- COMPOUND: "Nc1cccc2c1C(=O)N(C1CCC(=O)NC1=O)C2=O (centres undefined)"
  REPORTED_RESULT: "inactive"
- COMPOUND: "C[C@@H](Oc1ccc2[nH]nc(C=Cc3cnn(CCO)c3)c2c1)c1c(Cl)cncc1Cl"
  REPORTED_RESULT: "inactive"
- COMPOUND: "C=CC1=C(C(=O)O)N2C(=O)[C@@H](NC(=O)C(=NO)c3csc(N)n3)[C@H]2SC1"
  REPORTED_RESULT: "inactive"
- COMPOUND: "CC(C)N1[N]C(=C2C=c3cc(O)ccc3=N2)c2c(N)ncnc21"
  REPORTED_RESULT: "inactive"
- COMPOUND: "CCCCCCCCc1ccc(CCC(N)(CO)CO)cc1"
  REPORTED_RESULT: "inactive"

----------
- ASSAY_INFO: Quantitative High-Throughput drug screen in 47 multiple myeloma cell lines against the NCATS MIPE library collection: ARP1_JJKsccF8 cell viability assay (AID 1918928; also: nearly all actives have a fitted effect of over 40% in size)
- RUN_CONDITIONS: ARP1 myeloma cells viability, CellTiter-Glo ATP, 48 h; series mostly up to 45.8 µM
Inconclusive results are not listed. Active and inactive are the calls of the source. Calls follow the shape of the dose curve; as a rule, active = well fitted cell-killing curve with a large enough effect; inconclusive = small, poorly fitted or top-dose-only effect, or effect the other way; inactive = no such curve, though single readings can be large or run the other way.
Outcomes: YES (active), NO (inactive)

- SMILES_CODE: "CC(C)N(CC[C@H](c1ccccc1)c1cc(CO)ccc1O)C(C)C"
  LABEL_CLASS: "NO"
- SMILES_CODE: "C=CCNC1=C2C[C@@H](C)C[C@H](OC)[C@@H](O)[C@@H](C)C=C(C)[C@H](OC(N)=O)[C@@H](OC)C=CC=C(C)C(=O)NC(=CC1=O)C2=O"
  LABEL_CLASS: "YES"
- SMILES_CODE: "NC(=O)c1ncn([C@@H]2O[C@H](CO)[C@@H](O)[C@@H]2O)c1O"
  LABEL_CLASS: "YES"
- SMILES_CODE: "c1coc(CNc2ncnc3nc[nH]c23)c1"
  LABEL_CLASS: "NO"
- SMILES_CODE: "CC(C)(O)Cn1c(NC(=O)c2ccc(-c3cn[nH]c3)s2)nc2cc(CN3CCOCC3)ccc21"
  LABEL_CLASS: "YES"
- SMILES_CODE: "NC(=O)Nc1sc(-c2ccc(F)cc2)cc1C(N)=O"
  LABEL_CLASS: "YES"
- SMILES_CODE: "N#CC(=C(O)c1ccc(Cl)cc1Cl)c1nc2cc(Cl)ccc2c(=O)[nH]1"
  LABEL_CLASS: "NO"
- SMILES_CODE: "CCCNS(=O)(=O)Nc1ncnc(OCCOc2ncc(Br)cn2)c1-c1ccc(Br)cc1"
  LABEL_CLASS: "NO"
- SMILES_CODE: "COC[C@H](NC(=O)c1cnc(C)s1)C(=O)N[C@@H](COC)C(=O)N[C@@H](Cc1ccccc1)C(=O)[C@@]1(C)CO1"
  LABEL_CLASS: "YES"

----------
- ASSAY_INFO: qHTS of pediatric cancer cell lines to identify multiple opportunities for drug repurposing: Primary screen for LAN-5 cells (AID 1347100)
- RUN_CONDITIONS: LAN-5 neuroblastoma viability, CellTiter-Glo luminescence, 48 h; series mostly up to 46 µM
Results filed as inconclusive are left out. Activity calls are given as the source filed them. Calls follow the shape of the dose curve; as a rule, active = well fitted cell-killing curve with a large enough effect; inconclusive = small, poorly fitted or top-dose-only effect; inactive = no such curve, though single readings can be large or run the other way. Positions of bridges follow the written chain, without caps; N, C: chain ends. Non-standard residues stand in square brackets, D forms with d. Residues, ends and D or L forms follow the SMILES beside them. ξ: configuration not given here. *: point of attachment. Octanoyl(6-Me) = CCC(C)CCCCC(=O)*; ξThr(3R) = C[C@@H](O)C(N)C(=O)O; dDab = NCC[C@@H](N)C(=O)O; Dab = NCC[C@H](N)C(=O)O
Outcomes: active, inactive

- COMPOUND: "CC(C)N1[N]C(=C2C=c3cc(O)ccc3=N2)c2c(N)ncnc21"
  LABEL_CLASS: "active"
- COMPOUND: "Cc1cc(O)c2c(c1)C(=O)c1cccc(O)c1C2=O"
  LABEL_CLASS: "inactive"
- COMPOUND: "O=C(C=Cc1ccc(CN(CCO)CCc2c[nH]c3ccccc23)cc1)NO"
  LABEL_CLASS: "active"
- COMPOUND: "CCC(C)CCCCC(=O)N[C@@H](CCN)C(=O)NC(C(=O)N[C@H](CCN)C(=O)N[C@@H]1CCNC(=O)C([C@@H](C)O)NC(=O)[C@@H](CCN)NC(=O)[C@@H](CCN)NC(=O)[C@@H](CC(C)C)NC(=O)[C@H](Cc2ccccc2)NC(=O)[C@H](CCN)NC1=O)[C@@H](C)O (stereo partly drawn) ({Octanoyl(6-Me)}-[Dab][ξThr(3R)][dDab][dDab][Dab]F[dL][dDab][dDab][ξThr(3R)]; lactam 4-C)"
  LABEL_CLASS: "inactive"
- COMPOUND: "OC[C@@H](O)[C@@H](O)[C@H](O)[C@@H](O)CO"
  LABEL_CLASS: "inactive"
- COMPOUND: "CC(C)C[C@H](NC(=O)[C@@H](NC(=O)c1cccc(-c2ccccc2)n1)[C@@H](C)O)B(O)O"
  LABEL_CLASS: "active"
- COMPOUND: "CN(C)CCN1C(=O)c2cccc3cc(N)cc(c23)C1=O"
  LABEL_CLASS: "active"
- COMPOUND: "Cc1[nH]c(C=C2C(=O)Nc3ccccc32)c(C)c1CCC(=O)O"
  LABEL_CLASS: "active"
- COMPOUND: "C[C@@]12C(=O)OC(=O)[C@@]1(C)C1CCC2O1"
  LABEL_CLASS: "active"
- COMPOUND: "Cn1cc(CNCC2CCN(c3ncc(C(=O)NO)cn3)CC2)c2ccccc21"
  LABEL_CLASS: "active"
- COMPOUND: "COc1cc(OC)cc(-c2ccc3ncc4ccc(=O)n(-c5ccc(N6CCNCC6)c(C(F)(F)F)c5)c4c3c2)c1"
  LABEL_CLASS: "active"
- COMPOUND: "Oc1cc2c(cc1O)C1c3ccc(O)c(O)c3OCC1(O)C2 (configuration not stated)"
  LABEL_CLASS: "inactive"
- COMPOUND: "CCOC(=O)C=C[C@H](C[C@@H]1CCNC1=O)NC(=O)[C@@H](CC(=O)[C@@H](NC(=O)c1cc(C)on1)C(C)C)Cc1ccc(F)cc1"
  LABEL_CLASS: "inactive"
- COMPOUND: "COc1cc(O)c2c(c1)C1OC1C[C@H](O)[C@H](O)C(=O)C=CC[C@H](C)OC2=O (some centres not stated)"
  LABEL_CLASS: "active"
- COMPOUND: "CC(C)OC(=O)[C@H](C)N[P@](=O)(OC[C@H]1O[C@@H](n2ccc(=O)[nH]c2=O)[C@](C)(F)[C@H]1O)Oc1ccccc1"
  LABEL_CLASS: "inactive"
- COMPOUND: "N#CC(=C(O)c1ccc(Cl)cc1Cl)c1nc2cc(Cl)ccc2c(=O)[nH]1"
  LABEL_CLASS: "inactive"
- COMPOUND: "CC(C)C[C@H](NC(=O)CNC(=O)c1cc(Cl)ccc1Cl)B1OC(=O)CC(CC(=O)O)(C(=O)O)O1 (some centres not stated)"
  LABEL_CLASS: "active"

----------
- ASSAY_INFO: Quantitative High-Throughput drug screen in 47 multiple myeloma cell lines against the NCATS MIPE library collection: XG1_PLB cell viability assay (AID 1919866); also: nearly all actives have a fitted effect of over 35% in size
- RUN_CONDITIONS: CellTiter-Glo ATP, 48 h; series mostly up to 45.8 µM
- Description: PI: Beverly A. Mock Ph.D. Laboratory of Cancer Biology and Genetics, Center for Cancer Research, National Cancer Institute, National Institute of Health, Bethesda, Maryland […] 5; Detector; 425V; Luminescence; Viewlux PerkinElmer. […] 1. […] Briefly, the corresponding myeloma cell lines were screened in 1,536-well plates with 500 cells, 5-uL per well for inhibition of cell viability (assessed by measuring ATP levels with CellTiterGlo). […]
Inconclusive results are not listed. The source made the active and inactive calls. The call rests on the fitted dose curve; in most records, active means well fitted cell-killing curve with a large enough effect; inconclusive means small, poorly fitted or top-dose-only effect, or effect the other way; inactive means no such curve, though single readings can be large or run the other way.
Outcomes: Yes = active, No = inactive

- SMILES_CODE: "N#Cc1c(C2CCNCC2)cc(-c2c(O)cccc2OCC2CC2)nc1N"
  LABEL_CLASS: "Yes"
- SMILES_CODE: "Cc1cc(Nc2ncc3c(n2)N(C)C(=O)N(c2cc(NC(=O)c4cccc(C(F)(F)F)c4)ccc2C)C3)n(C)n1"
  LABEL_CLASS: "Yes"
- SMILES_CODE: "C[C@H]1COc2c(N3CCN(C)CC3)c(F)cc3c(=O)c(C(=O)O)cn1c23"
  LABEL_CLASS: "No"
- SMILES_CODE: "COC[C@H](NC(=O)c1cnc(C)s1)C(=O)N[C@@H](COC)C(=O)N[C@@H](Cc1ccccc1)C(=O)[C@@]1(C)CO1"
  LABEL_CLASS: "Yes"
- SMILES_CODE: "C[C@@H](Oc1ccc2[nH]nc(C=Cc3cnn(CCO)c3)c2c1)c1c(Cl)cncc1Cl"
  LABEL_CLASS: "Yes"
- SMILES_CODE: "Cc1cnc(NC(=O)Nc2cc(Br)c(C)cc2OC[C@@H]2CNCCO2)cn1"
  LABEL_CLASS: "Yes"
- SMILES_CODE: "NC[C@H]1O[C@H](O[C@H]2[C@@H](O)[C@@H](O[C@H]3O[C@H](CO)[C@@H](O)[C@H](N)[C@@H]3O)[C@H](N)C[C@@H]2N)[C@H](N)C[C@H]1O"
  LABEL_CLASS: "No"
- SMILES_CODE: "c1cc(CN2CCCNCCNCCCNCC2)ccc1CN1CCCNCCNCCCNCC1"
  LABEL_CLASS: "No"
